This section presents compounds with their documented inhibition values.
test_protocol: inhibitors of TNFa-induced NFkB p65 translocation, primary screen, imaging, HUVEC, MLSMR starter and 10KST1 sets (AID 438);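 also: compound added about 3h40 before a 20 min TNFalpha stimulation; signal is the nuclear over cytoplasmic p65 intensity ratio per well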
condition_notes: HUVEC TNFa-induced p65 nuclear translocation; at 2 µM, stronger effect = higher value, 0% TNFa-plus-vehicle, 100% no-TNFa wells
Hi! Could you send only the number? It should be in %, unit omitted.

Recorded inhibition, per entry:
Cc1cccc(C)c1NC(=O)c1cc(S(=O)(=O)N2CCOCC2)ccc1F | 10.3
COc1ccc(OC)c2[nH]c(=O)c(CCNC(=O)CC(C)C)cc12 | -12.8
O=C(CSc1nnc(-c2ccccc2)o1)N1CCc2ccccc2C1 | -4.2
CCC(OC(=O)c1cccs1)C(=O)NCc1ccco1 (stereo unspecified) | 5.2
CC(C)(C)C(=O)OCC1OC(n2cnc(C(N)=O)n2)C(O)C1O (stereo unspecified) | -8.7
Cn1c(=O)c2c(nc(CN3CCN(c4ccccc4F)CC3)n2CCN2CCOCC2)n(C)c1=O | -6.9

Please indicate inhibition recorded for CCOC(=O)c1ccc(NS(=O)C23CC4CC(CC(C4)C2)C3)cc1 (stereo unspecified)
-1.1

Please indicate inhibition recorded for Cc1ccc(C(=O)OCC(=O)c2ccc(Cl)s2)s1
-24.7

Please indicate inhibition recorded for O=S1(=O)C=C(Sc2nnc(-c3ccccc3)o2)c2ccccc21
7.4

Please indicate inhibition recorded for COCCNC(=O)CN1CCN(Cc2cccc(Cl)c2)C1=O
-11.6

Please indicate inhibition recorded for COC(=O)Cn1c(CCS(=O)(=O)c2ccc(C)cc2)nc2ccccc21
-41.8

====

test_protocol: endothelial E-selectin expression blockers – imaging, HUVEC, immunofluorescence, MLSMR starter and 10KST1 sets, primary screen (AID 487);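 as to inhibition: signal is fraction of cell area covered by stained E-selectin grains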
condition_notes: HUVEC TNFalpha-induced E-selectin immunofluorescence imaging, at 2 µM; stronger effect = higher value
Lab note: anything with inhibition at or over -10% counts as y; the rest go in n.

Does the reported inhibition for Cc1cc(C)c2cc3c(ccn3C3OC[C@H](O)[C@H](O)[C@H]3O)cc2n1 (stereo partly drawn) fall at or above the -10% mark?
n

Does the reported inhibition for CCN1CCN(C(=O)c2cn(CCOC)c(=O)c3c2c2ccccc2n3C)CC1 fall at or above the -10% mark?
n

Does the reported inhibition for Nc1nnc(-c2ccccc2)c(-c2ccccc2)n1 fall at or above the -10% mark?
n

====

test_protocol: reduction of polyQ htt aggregates in cells – imaging, exon1htt(103Q)mCFP cells, high-content imaging, primary screen (AID 483);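 also: compound exposure lasted 3 days before fixation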
condition_notes: exon1htt(103Q)mCFP cell line, aggregate imaging, at 2 µM; stronger effect = higher value
reported_endpoint: inhibition of aggregation (%)
Hi! Could you send only the number? It should be in %, unit omitted.

Recorded inhibition of aggregation, per entry:
CCOC(=O)Nc1ccc(OC)cc1S(=O)(=O)N1CCCCC1 | -24
Cc1ccccc1NS(=O)(=O)c1cc(C(=O)N2CCCC2)ccc1C | 16.1
Cn1c(CSc2nc3ccccc3s2)nnc1SCC(=O)NCCN1CCOCC1 | -3.4
O=C1c2ccccc2NC(c2cccc(F)c2)N1Cc1ccco1 (configuration not stated) | 10.2

Now take the following compound into account.
Please indicate inhibition of aggregation recorded for Cc1nn(Cc2ccccc2)c2c1C(c1ccncc1)C(C#N)=C(N)O2 (configuration not stated)
17.9

====

test_protocol: endothelial E-selectin expression blockers – imaging, HUVEC, immunofluorescence, MLSMR starter and 10KST1 sets, primary screen (AID 487);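 as to nuclei count: 100% = median nuclei count of all wells on the same plate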
condition_notes: HUVEC TNFalpha-induced E-selectin immunofluorescence imaging, at 2 µM; measured here: cell number, toxicity
This section presents molecules with their documented nuclei count values.
Hi! Could you send only the number? It should be in %, unit omitted.

Recorded nuclei count, per entry:
Cc1cc(C(=O)CSCCCn2c(=O)[nH]c3ccccc32)c(C)n1C | 113
COCCCNC(=O)c1ccc(CS(=O)(=O)c2ccc(OC)cc2)o1 | 115
Cc1csc2nc3ccccc3c(=O)n12 | 119
COc1ccc(-n2c(COc3cccc(C)c3)nnc2SCC(=O)NCc2ccco2)cc1 | 100
O=C(NC(C(=O)c1ccccc1)n1ccc(=O)[nH]c1=O)c1ccccc1 (stereo unspecified) | 104
O=C(C1CCCN1S(=O)(=O)c1cccc2cccnc12)N1CCn2c1nc1ccccc12 (stereo unspecified) | 124

Please indicate nuclei count recorded for Cc1cc(C)n2nc(C(=O)NCc3ccco3)nc2n1
109

Please indicate nuclei count recorded for O=C(OC1CCOC1=O)c1ccc2ccccc2n1 (stereo unspecified)
76

Please indicate nuclei count recorded for Oc1c(Cl)cc(Cl)c2c1NCCC2
91.9

Please indicate nuclei count recorded for COc1ccccc1NC(=O)NC1(C(=O)N2CCC(O)CC2)CCCCC1
94

Please indicate nuclei count recorded for CCCNC(=O)c1cc(S(=O)(=O)N2CCc3ccccc32)ccc1F
104

Please indicate nuclei count recorded for COc1ccc(S(=O)(=O)NCc2ccc3c(c2)OCO3)cc1C(=O)O
107

Please indicate nuclei count recorded for Cc1cc(C)n2cc(CSCc3ccco3)nc2n1
88.2

Please indicate nuclei count recorded for Cc1cc(=O)c2n(Cc3ccccc3Cl)nc[n+]2[nH]1
120

Please indicate nuclei count recorded for COc1ccc(NC(=O)Nc2ccc(N3CCCC3=O)cc2)cc1OC
120

Please indicate nuclei count recorded for CCSC1=NCN(CCCC(=O)O)CN1
125

Please indicate nuclei count recorded for CCN(CCO)C1CC(=O)N(c2ccccc2C)C1=O (stereo unspecified)
145

Please indicate nuclei count recorded for CCCS(=O)(=O)N1CCC(C(=O)N2CCCC2)CC1
107

Please indicate nuclei count recorded for O=C(Nc1nnc(C2CCCCC2)s1)c1cccs1
121

Please indicate nuclei count recorded for CCn1nccc1C(=O)Nc1nccs1
103

Please indicate nuclei count recorded for O=C(Nc1ccc(N2C(=O)C3C4C=CC(C4)C3C2=O)cc1)Nc1cccnc1 (stereo unspecified)
112

Please indicate nuclei count recorded for CCN(CC(=O)Nc1ccc2c(c1)CCC2)Cc1nc2ccccc2c(=O)[nH]1
102

Please indicate nuclei count recorded for O=C(O)CCc1ccc(-c2cccs2)n1NC(=O)c1ccccc1Br
115

Please indicate nuclei count recorded for O=C(Oc1ccc(Cl)cc1N1C(=O)CCC1=O)c1ccco1
134

Please indicate nuclei count recorded for CCOC(=O)c1ccc(NC(=O)N2CCN(Cc3cccc(F)c3)CC2)cc1
109
